Assayed target: AURKA (human)
Test details: split-luciferase competition binding
Conditions: compound 10.0 µM
Examples of compounds with documented inhibition follow.
Property label: inhibition (%)

compound=O=S(=O)(NCCNC/C=C/c1ccc(Br)cc1)c1cccc2cnccc12 property_label=inhibition value_reported=0
compound=N#C/C(=C(/N)Sc1ccc(N)cc1)c1ccccc1C(F)(F)F property_label=inhibition value_reported=0
compound="CC1=C(O)C(=O)[C@@H]2OC2C1=O (stereo partly drawn)" property_label=inhibition value_reported=0

---

Below, each of the molecules is paired with its reported inhibition value.
Assayed target: PRKACB (human)
Test details: split-luciferase competition binding
Conditions: compound 10.0 µM
Property label: inhibition (%)

smiles_text=CN1CC[C@H](c2c(O)cc(O)c3c(=O)cc(-c4ccccc4Cl)oc23)[C@H](O)C1 assayed_target="PRKACB (human)" value_reported=0
smiles_text=N#C/C(=C\c1ccc(O)c(O)c1)C(=O)NCc1ccccc1 assayed_target="PRKACB (human)" value_reported=0
smiles_text=CCN(CC)CCCCN1c2ccccc2Oc2ccc(Cl)cc21 assayed_target="PRKACB (human)" value_reported=0
smiles_text=CO[C@@H]1[C@H](N(C)C(=O)c2ccccc2)C[C@H]2O[C@]1(C)n1c3ccccc3c3c4c(c5c6ccccc6n2c5c31)C(=O)NC4 assayed_target="PRKACB (human)" value_reported=81
smiles_text=NC(=O)c1ccc(-c2nc(-c3ccccn3)c(-c3ccc4c(c3)OCCO4)[nH]2)cc1 assayed_target="PRKACB (human)" value_reported=3
smiles_text=NC(=O)c1ccc(-c2nc(-c3ccccn3)c(-c3ccc4c(c3)OCO4)[nH]2)cc1 assayed_target="PRKACB (human)" value_reported=0
smiles_text=Nc1ncnc2[nH]nc(Nc3ccc(F)cc3)c12 assayed_target="PRKACB (human)" value_reported=1

---

Assayed target: PRKX (human)
Test details: split-luciferase competition binding
Conditions: compound 10.0 µM
Quick reference: inhibition of the listed items.
Property label: inhibition (%)

smiles_text=O=S(=O)(NCCNC/C=C/c1ccc(Br)cc1)c1cccc2cnccc12 value_reported=87
smiles_text=CCN(CC)CCCCN1c2ccccc2Oc2ccc(Cl)cc21 value_reported=7
smiles_text=CO[C@@H]1[C@H](N(C)C(=O)c2ccccc2)C[C@H]2O[C@]1(C)n1c3ccccc3c3c4c(c5c6ccccc6n2c5c31)C(=O)NC4 value_reported=71

---

# inhibition values compiled below
Assayed target: PRKCG (human)
Test details: split-luciferase competition binding
Conditions: compound 10.0 µM
Property label: inhibition

smiles_text=C=CC(=O)c1ccc2ccccc2c1 property_label=inhibition value_reported=0%
smiles_text=CC(C)N(CCC(=O)c1ccc2ccccc2c1)Cc1ccccc1 property_label=inhibition value_reported=0%
smiles_text=CCN(CC)CCCCN1c2ccccc2Oc2ccc(Cl)cc21 property_label=inhibition value_reported=0%

---

Assayed target: PRKCE (human)
Test details: split-luciferase competition binding
Conditions: compound 10.0 µM
Recorded inhibition by entry
Property label: inhibition

molecule=CC(C)(C)n1nc(-c2ccc(Cl)cc2)c2c(N)ncnc21 value_reported=0%
molecule=Cc1ccc(NC(=O)c2cccc(N(C)C)c2)cc1NC(=O)c1ccc(O)cc1 value_reported=0%
molecule="COc1cc(CC2C(=O)OC[C@@H]2Cc2ccc(OC)c(OC)c2)ccc1O (stereo not given in full)" value_reported=0%
molecule="CS(=O)c1ccc(-c2nc(-c3ccc(F)cc3)c(-c3ccncc3)[nH]2)cc1 (stereo not given)" value_reported=0%
molecule=O=S(=O)(NCCNC/C=C/c1ccc(Br)cc1)c1cccc2cnccc12 value_reported=9%

---

Assayed target: PRKCE (human)
Test details: split-luciferase competition binding
Conditions: compound 10.0 µM
Property label: inhibition (%)

compound=O=S(=O)(c1cccc2cnccc12)N1CCCNCC1 property_label=inhibition value_reported=0
compound=CC(C)(C)n1nc(-c2cccc3ccccc23)c2c(N)ncnc21 property_label=inhibition value_reported=14
compound=CC(C)N(CCC(=O)c1ccc2ccccc2c1)Cc1ccccc1 property_label=inhibition value_reported=0
compound="O=C(NC(NC(=S)Nc1ccc(F)c([N+](=O)[O-])c1)C(Cl)(Cl)Cl)C(c1ccccc1)c1ccccc1 (stereo not given)" property_label=inhibition value_reported=16
compound=CN1CCC(Nc2ncc3ncnc(Nc4ccc(F)c(Cl)c4)c3n2)CC1 property_label=inhibition value_reported=0

---

Below: a set of entries, each annotated with reported inhibition.
Assayed target: PKN1 (human)
Test details: split-luciferase competition binding
Conditions: compound 10.0 µM
Property label: inhibition

smiles_text=COc1cc2ncn(-c3cc(OCc4ccccc4C(F)(F)F)c(C(N)=O)s3)c2cc1OC value_reported=4%
smiles_text=Cc1cc(I)ccc1Nc1c(C(=O)NOCC2CC2)cc(F)c(F)c1F value_reported=0%
smiles_text=O=C1NC(=O)C(c2ccccc2[N+](=O)[O-])=C1Nc1ccc(O)c(Cl)c1 value_reported=0%
smiles_text=CO[C@@H]1[C@H](N(C)C(=O)c2ccccc2)C[C@H]2O[C@]1(C)n1c3ccccc3c3c4c(c5c6ccccc6n2c5c31)C(=O)NC4 value_reported=23%

---

Assayed target: UniProt:P05129
Test details: split-luciferase competition binding
Conditions: compound 10.0 µM
Property label: inhibition

compound=COc1nccc(-c2c(-c3ccc(F)cc3)ncn2[C@H]2CC[C@H](O)CC2)n1 property_label=inhibition value_reported=9%
compound=CC(C)[C@H](CO)Nc1nc(Nc2cccc(Cl)c2)c2ncn(C(C)C)c2n1 property_label=inhibition value_reported=0%
compound="O=C(NC(NC(=S)Nc1ccc(F)c([N+](=O)[O-])c1)C(Cl)(Cl)Cl)C(c1ccccc1)c1ccccc1 (centres undefined)" property_label=inhibition value_reported=15%
compound=O=S(=O)(c1cccc2c(O)nccc12)N1CCCNCC1 property_label=inhibition value_reported=0%
compound=C/C(O)=C(\C#N)C(=O)Nc1cc(Br)ccc1Br property_label=inhibition value_reported=0%
compound="COc1cc(CC2C(=O)OC[C@@H]2Cc2ccc(OC)c(OC)c2)ccc1O (some centres undefined)" property_label=inhibition value_reported=0%
compound=CCN(CC)CCNC(=O)c1c(C)[nH]c(/C=C2\C(=O)Nc3ccc(F)cc32)c1C property_label=inhibition value_reported=0%
compound=c1ccc(-c2n[nH]cc2-c2ccnc3ccccc23)nc1 property_label=inhibition value_reported=4%
compound=NC(=O)c1ccc(-c2nc(-c3ccccn3)c(-c3ccc4c(c3)OCO4)[nH]2)cc1 property_label=inhibition value_reported=0%
compound=Cc1ccc(-c2nn(C(C)(C)C)c3ncnc(N)c23)cc1 property_label=inhibition value_reported=0%
compound=Cc1cc(F)c(Nc2ncnc3cc(OCc4ccccc4)ccc23)cc1O property_label=inhibition value_reported=1%
compound=O=S(=O)(c1cccc2c(Cl)cccc12)N1CCCNCC1 property_label=inhibition value_reported=0%
compound=Cc1[nH]c(/C=C2\C(=O)Nc3ccc(S(=O)(=O)Cc4c(Cl)cccc4Cl)cc32)c(C)c1C(=O)N1CCC[C@@H]1CN1CCCC1 property_label=inhibition value_reported=12%
compound=COc1cc2ncnc(Nc3ccc(Cl)cc3F)c2cc1OC property_label=inhibition value_reported=2%
compound=Fc1ccc(Cl)cc1-c1nc(Nc2ccncc2)c2nccnc2n1 property_label=inhibition value_reported=10%
compound=COc1cc2ncnc(Nc3ccc(F)c(Cl)c3)c2cc1OCCCN1CCOCC1 property_label=inhibition value_reported=9%
compound=COc1cc2c(Nc3ccc(NC(=O)c4ccccc4)cc3)ncnc2cc1OCCCN1CCOCC1 property_label=inhibition value_reported=6%
compound=O=C1c2ccccc2-c2n[nH]c3cccc1c23 property_label=inhibition value_reported=0%
compound=CS(=O)(=O)CCNCc1nc(-c2ccc3ncnc(Nc4ccc(OCc5cccc(F)c5)c(Cl)c4)c3c2)cs1 property_label=inhibition value_reported=10%
compound=O=C1NC(=O)C(c2ccccc2[N+](=O)[O-])=C1Nc1ccc(O)c(Cl)c1 property_label=inhibition value_reported=0%
compound=O=c1cc(N2CCOCC2)nc2c3ccccc3ccn12 property_label=inhibition value_reported=0%
compound=Nc1ncnc2[nH]nc(Nc3ccc(F)cc3)c12 property_label=inhibition value_reported=0%
compound=Cc1ccccc1C(=O)c1ccc(Nc2ccc(Br)cc2N)cc1Cl property_label=inhibition value_reported=0%
compound=O=C(c1ccc(Nc2nccc(-c3cc4ccccc4s3)n2)cc1)N1CCC(N2CCCC2)CC1 property_label=inhibition value_reported=13%

---

Assayed target: PRKCH (human)
Test details: split-luciferase competition binding
Conditions: compound 10.0 µM
Property label: inhibition (%)

smiles_text=O=c1cc(N2CCOCC2)nc2c3ccccc3ccn12 property_label=inhibition unit_text=% value_reported=0
smiles_text=C/C(O)=C(\C#N)C(=O)Nc1cc(Br)ccc1Br property_label=inhibition unit_text=% value_reported=0
smiles_text=CN1CCC(Nc2ncc3ncnc(Nc4ccc(F)c(Cl)c4)c3n2)CC1 property_label=inhibition unit_text=% value_reported=0
smiles_text=COc1cc2ncnc(Nc3ccc(F)c(Cl)c3)c2cc1OCCCN1CCOCC1 property_label=inhibition unit_text=% value_reported=0
smiles_text=CO[C@@H]1[C@H](N(C)C(=O)c2ccccc2)C[C@H]2O[C@]1(C)n1c3ccccc3c3c4c(c5c6ccccc6n2c5c31)C(=O)NC4 property_label=inhibition unit_text=% value_reported=60
smiles_text=O=S(=O)(NCCNC/C=C/c1ccc(Br)cc1)c1cccc2cnccc12 property_label=inhibition unit_text=% value_reported=34
smiles_text=N#C/C(=C\c1ccc(O)c(O)c1)C(N)=S property_label=inhibition unit_text=% value_reported=0
smiles_text=O=C1NC(=O)c2c1c1c3ccccc3[nH]c1c1[nH]c3ccccc3c21 property_label=inhibition unit_text=% value_reported=65
